- tested target: human glucagon receptor (Homo sapiens, UniProt P47871)
- Construct: made in house; host or cells: FreeStyle CHO cells, transient transfection with pMSRαneo/hGCGR; membrane fraction (35,000 rpm pellet)
- Sequence (P47871 26-477): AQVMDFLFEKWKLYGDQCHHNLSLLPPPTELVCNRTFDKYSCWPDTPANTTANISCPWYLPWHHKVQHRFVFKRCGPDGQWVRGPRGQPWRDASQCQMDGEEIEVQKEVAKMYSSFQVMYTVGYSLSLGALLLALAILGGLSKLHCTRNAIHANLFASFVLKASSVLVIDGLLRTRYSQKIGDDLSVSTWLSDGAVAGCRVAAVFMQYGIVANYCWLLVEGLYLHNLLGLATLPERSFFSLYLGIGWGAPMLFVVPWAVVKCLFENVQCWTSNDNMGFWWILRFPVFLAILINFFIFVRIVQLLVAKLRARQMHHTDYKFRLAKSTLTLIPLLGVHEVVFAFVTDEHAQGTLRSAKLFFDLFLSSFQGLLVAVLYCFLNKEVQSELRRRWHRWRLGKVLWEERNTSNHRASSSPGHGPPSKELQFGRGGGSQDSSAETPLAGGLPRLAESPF
- method notes: Glucagon binding inhibitory activity ([125I]-glucagon binding to glucagon receptor membrane protein)
- assay conditions: test compound 10 μM; 0.4% DMSO = 0%, non-labeled glucagon 1 μM = 100%
metric name: inhibitory rate (%) at 10 μM
Give bare numbers, in %.

compound	metric name	recorded value
Cc1c(C(Nc2ccc(C(=O)N(C)CCC(=O)O)cc2)C2CCCC2)sc2ccccc12 (stereo not drawn)	inhibitory rate (%) at 10 μM	79
Cc1c(C(Nc2ccc(C(=O)N(C)CCC(=O)O)cn2)C2CCCCC2)oc2ccc(F)cc12 (stereo not drawn)	inhibitory rate (%) at 10 μM	52

Shifting focus to the compound that follows.
Q: Report inhibitory rate (%) at 10 μM for Cc1c(C(Nc2ccc(C(=O)N(C)CCC(=O)O)cc2)C2CCCC2)oc2ccc(F)cc12 (stereo not drawn) please.
Result: 89
